- System: Mycobacterium tuberculosis
- METHOD SUMMARY: Cornell M. t heat shock assay; note: in the data most compounds retested in dose-response had high values
- Type: functional, organism-based
- Set-up: dose or concentration left out as unconfirmed
Screen size: about 69,000 compounds; about 950 (1.4%) showed an effect of 50% or more. Many of the other results were omitted from the sample, so strong results are more common in it than they were.
PROPERTY NAME: Percent Effect (%)
Report the figure in % without appending any unit label.

Fill in: Percent Effect of Cc1ccc(CNCc2cccc3cccnc23)c(OC2CCOC2)c1 (centres undefined) is ___ 87.35

Fill in: Percent Effect of O=C(O)C(F)(F)F.O=C(O)C(F)(F)F.O=C1Nc2ccccc2C12CCN(Cc1ccccn1)CC2 is ___ -17.02
